These measurements were taken from paper PMC9841576.

# ASSAY SYSTEM: Syk (h) (Homo sapiens)
pIC50: −log10 of the molar value.
REPORTED PROPERTY: pIC50

Ask: # get_value(readout='pIC50', item= Nc1nonc1-c1nc2ccccc2n1Cc1ccncc1 )
Reply: < 5.00

====

# ASSAY SYSTEM: mouse THIK-1 (Mus musculus, UniProt Q8R1P5)
# Construct: expressed in transfected cells
# Sequence (Q8R1P5 1-405): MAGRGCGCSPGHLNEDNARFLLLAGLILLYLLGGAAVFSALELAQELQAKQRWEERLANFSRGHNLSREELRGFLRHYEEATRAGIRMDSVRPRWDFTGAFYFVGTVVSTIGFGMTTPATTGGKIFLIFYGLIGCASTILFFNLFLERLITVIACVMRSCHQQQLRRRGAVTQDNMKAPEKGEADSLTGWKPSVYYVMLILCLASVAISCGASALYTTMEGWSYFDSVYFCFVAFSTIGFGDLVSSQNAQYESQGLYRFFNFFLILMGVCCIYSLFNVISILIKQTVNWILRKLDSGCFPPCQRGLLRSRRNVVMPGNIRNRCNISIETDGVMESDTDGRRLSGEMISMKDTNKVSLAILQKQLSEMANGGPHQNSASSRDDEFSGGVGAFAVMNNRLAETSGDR
# ASSAY METHOD TEXT: FLIPR thallium influx assay, HEK-mTHIK-1 cells
# Format: cell-based
# ASSAY SETUP: HEK-mTHIK-1, normalised to TPA controls; read-out: IC50, mouse THIK-1 (thallium influx)
REPORTED PROPERTY: pIC50
# reply with the number alone; pIC50 is -log10 of concentration in mol/L

Ask: Fill in: pIC50 of Nc1nonc1-c1nc2ccccc2n1Cc1ccncc1 is ___
Reply: 7.31

====

# ASSAY SYSTEM: mouse THIK-1 (Mus musculus, UniProt Q8R1P5)
# Construct: expressed in transfected cells
# ASSAY METHOD TEXT: FLIPR thallium influx assay, HEK-mTHIK-1 cells
# Assay type: cell-based
# ASSAY SETUP: mouse THIK-1; read-out: IC50, inhibition of mouse THIK-1 (abstract)
# Method: HEK-293 cells were transfected with human THIK-1, TREK-1, TWIK-2, or mouse THIK-1 cDNA cloned into pcDNA3.1, using either Fugene HD transfection reagent (Promega) or electroporation (MaxCyte STX instrument). Cells stably expressing the relevant genes were selected based on resistance to 500 μg/ml geneticin (Gibco). […] A fluorescence-based thallium influx assay (Molecular Devices potassium assay kit) was used to monitor channel activity. […]
pIC50: −log10 of the molar value.
REPORTED PROPERTY: pIC50

Ask: So what's the measured pIC50 for this one? Nc1nonc1-c1nc2ccccc2n1Cc1ccncc1
Reply: ~7.30

====

# ASSAY METHOD TEXT: CNS PK study in mice
# Format: in vivo
# ASSAY SETUP: C57BL/6, mouse, brain (unbound) / plasma (unbound); 30 mg/kg single oral, male mice, 0.25-2 h post dose; read-out: unbound partition coefficient (Kpu,u)
REPORTED PROPERTY: Kp

Ask: Return reported Kp; argument: Nc1nonc1-c1nc2ccccc2n1Cc1ccncc1
Reply: 0.7 to 1.5

====

# Tested on: NLRP3-dependent release of IL-1β
# ASSAY METHOD TEXT: LPS/ATP-induced IL-1β release from differentiated THP1 cells overexpressing human THIK-1
# Assay type: cell-based
# ASSAY SETUP: Homo sapiens, THP-1; THIK-1 overexpressing differentiated THP1 cells, LPS/ATP; read-out: IC50, inhibition of IL-1β release
REPORTED PROPERTY: pIC50
# reply with the number alone; pIC50 is -log10 of concentration in mol/L

Ask: Can you share its pIC50? I mean this compound: Nc1nonc1-c1nc2ccccc2n1Cc1ccncc1
Reply: 6.87
